# assay-system: HLA-A*02:01 (Homo sapiens, UniProt P04439, D140Y/D185E/D98H/E176V/E277Q/G131W/G231S/I119V/I121R/I166T/I218V/L300P/L318F/N151K/N90K/P208A/P217A/Q86G/Q94H/R138H/R169H/T345S)
# test-method-notes: MHC binding assay (UV-ligand exchange, β2m ELISA, peptide exchange yield)
# run-conditions: binding to HLA-A*02:01 ranged by peptide exchange yield (UV-ligand exchange, β2m ELISA)
# Source text: Candidate peptides for T cell based therapies according to the present invention were further tested for their MHC binding capacity (affinity). The individual peptide-MHC complexes were produced by UV-ligand exchange, where a UV-sensitive peptide is cleaved upon UV-irradiation, and exchanged with the peptide of interest as analyzed. Only peptide candidates that can effectively bind and stabilize the peptide-receptive MHC molecules prevent dissociation of the MHC complexes. […]
endpoint-label: Peptide exchange

Sample records with Peptide exchange:
substance	Peptide exchange
145 (ALYPGQLVQL; listed as Homo sapiens) [compound 145]	+++ (>50 = +++)
136 (GLSEPIFQL; listed as Homo sapiens) [compound 136]	+++ (>50 = +++)
96 (KLTNGIWVL; listed as Homo sapiens) [compound 96]	+++ (>50 = +++)
93 (LLDLIQTKV; listed as Homo sapiens) [compound 93]	+++ (>50 = +++)
62 (GQLDFSEFL; listed as Homo sapiens) [compound 62]	+++ (>50 = +++)

Sample 92 (ALLDEQQVNVLL; listed as Homo sapiens) [compound 92] ; Peptide exchange observed: +++ (>50 = +++)

Sample 73 (VLKVFLENV; listed as Homo sapiens) [compound 73] ; Peptide exchange observed: ++++ (>75% = ++++)

Sample 60 (SLSDVRVIV; listed as Homo sapiens) [compound 60] ; Peptide exchange observed: ++++ (>75% = ++++)

Sample 118 (RLLDFPTLLV; listed as Homo sapiens) [compound 118] ; Peptide exchange observed: +++ (>50 = +++)

---

# assay-system: HLA-A*02:01 (Homo sapiens, UniProt P04439, D140Y/D185E/D98H/E176V/E277Q/G131W/G231S/I119V/I121R/I166T/I218V/L300P/L318F/N151K/N90K/P208A/P217A/Q86G/Q94H/R138H/R169H/T345S)
# test-method-notes: MHC binding assay (UV-ligand exchange, β2m ELISA, peptide exchange yield)
# run-conditions: binding to HLA-A*02:01 ranged by peptide exchange yield (UV-ligand exchange, β2m ELISA)
endpoint-label: Peptide exchange

Sample records with Peptide exchange:
substance	result
83 (VILDKYYFL; listed as Homo sapiens) [compound 83]	++++ (>75% = ++++)
17 (RLSQLEGVNV; listed as Homo sapiens) [compound 17]	+++ (>50 = +++)
131 (ILTSIQSLL; listed as Homo sapiens) [compound 131]	++++ (>75% = ++++)
25 (SLDSSGFSL; listed as Homo sapiens) [compound 25]	+++ (>50 = +++)
114 (IITKDLFQV; listed as Homo sapiens) [compound 114]	+++ (>50 = +++)
113 (FVFEPPPGV; listed as Homo sapiens) [compound 113]	++++ (>75% = ++++)

// switching to the query substance
Sample 6 (SIVDFLITA; listed as Homo sapiens) [compound 6] ; Peptide exchange observed: +++ (>50 = +++)

---

# assay-system: HLA-A*02:01 (Homo sapiens, UniProt P04439, D140Y/D185E/D98H/E176V/E277Q/G131W/G231S/I119V/I121R/I166T/I218V/L300P/L318F/N151K/N90K/P208A/P217A/Q86G/Q94H/R138H/R169H/T345S)
# test-method-notes: MHC binding assay (UV-ligand exchange, β2m ELISA, peptide exchange yield)
# run-conditions: binding to HLA-A*02:01 ranged by peptide exchange yield (UV-ligand exchange, β2m ELISA)
endpoint-label: Peptide exchange

substance	endpoint-label	result
111 (LLDVTPKAV; listed as Homo sapiens) [compound 111]	Peptide exchange	+++ (>50 = +++)
4 (SLDVVNLLV; listed as Homo sapiens) [compound 4]	Peptide exchange	++++ (>75% = ++++)
95 (YLIGQHVTA; listed as Homo sapiens) [compound 95]	Peptide exchange	++++ (>75% = ++++)
10 (GLWHGMFANV; listed as Homo sapiens) [compound 10]	Peptide exchange	++++ (>75% = ++++)
103 (GLYSGEVLV; listed as Homo sapiens) [compound 103]	Peptide exchange	++++ (>75% = ++++)

Sample 59 (WLSTSIPEA; listed as Homo sapiens) [compound 59] ; Peptide exchange observed: ++++ (>75% = ++++)

Sample 110 (VLFNIDGQGNHV; listed as Homo sapiens) [compound 110] ; Peptide exchange observed: +++ (>50 = +++)

Sample 106 (ILLDTPLFL; listed as Homo sapiens) [compound 106] ; Peptide exchange observed: +++ (>50 = +++)

Sample 27 (STTNGGILTV; listed as Homo sapiens) [compound 27] ; Peptide exchange observed: +++ (>50 = +++)

Sample 54 (ALNDEINFL; listed as Homo sapiens) [compound 54] ; Peptide exchange observed: +++ (>50 = +++)

Sample 18 (SIAAYNPVV; listed as Homo sapiens) [compound 18] ; Peptide exchange observed: ++++ (>75% = ++++)

Sample 81 (SLDKGTLYI; listed as Homo sapiens) [compound 81] ; Peptide exchange observed: +++ (>50 = +++)

---

# assay-system: HLA-A*02:01 (Homo sapiens, UniProt P04439, D140Y/D185E/D98H/E176V/E277Q/G131W/G231S/I119V/I121R/I166T/I218V/L300P/L318F/N151K/N90K/P208A/P217A/Q86G/Q94H/R138H/R169H/T345S)
# test-method-notes: MHC binding assay (UV-ligand exchange, β2m ELISA, peptide exchange yield)
# run-conditions: binding to HLA-A*02:01 ranged by peptide exchange yield (UV-ligand exchange, β2m ELISA)
endpoint-label: Peptide exchange

substance	Peptide exchange
85 (HLLDSKVPSV; listed as Homo sapiens) [compound 85]	+++ (>50 = +++)
134 (IVAPGTFEV; listed as Homo sapiens) [compound 134]	+++ (>50 = +++)
12 (GVALTVTGV; listed as Homo sapiens) [compound 12]	++++ (>75% = ++++)
101 (ILDEMRAQL; listed as Homo sapiens) [compound 101]	+++ (>50 = +++)
123 (NLAGVYSEV; listed as Homo sapiens) [compound 123]	++++ (>75% = ++++)

Sample 132 (YILEGEPGKV; listed as Homo sapiens) [compound 132] ; Peptide exchange observed: ++++ (>75% = ++++)

---

# assay-system: HLA-A*02:01 (Homo sapiens, UniProt P04439, D140Y/D185E/D98H/E176V/E277Q/G131W/G231S/I119V/I121R/I166T/I218V/L300P/L318F/N151K/N90K/P208A/P217A/Q86G/Q94H/R138H/R169H/T345S)
# test-method-notes: MHC binding assay (UV-ligand exchange, β2m ELISA, peptide exchange yield)
# run-conditions: binding to HLA-A*02:01 ranged by peptide exchange yield (UV-ligand exchange, β2m ELISA)
endpoint-label: Peptide exchange

substance	endpoint-label	result
53 (ILVQVIPVV; listed as Homo sapiens) [compound 53]	Peptide exchange	+++ (>50 = +++)
138 (YLTNEGIQYL; listed as Homo sapiens) [compound 138]	Peptide exchange	+++ (>50 = +++)
31 (SLFDGIATGL; listed as Homo sapiens) [compound 31]	Peptide exchange	++++ (>75% = ++++)
28 (GLIDSLMAYV; listed as Homo sapiens) [compound 28]	Peptide exchange	++++ (>75% = ++++)
116 (QLAWFDTDL; listed as Homo sapiens) [compound 116]	Peptide exchange	+++ (>50 = +++)
35 (KLPEPPPLA; listed as Homo sapiens) [compound 35]	Peptide exchange	+++ (>50 = +++)
24 (SLLGGITVV; listed as Homo sapiens) [compound 24]	Peptide exchange	++++ (>75% = ++++)
15 (YLAPENGYLMEA; listed as Homo sapiens) [compound 15]	Peptide exchange	+++ (>50 = +++)
78 (FIPDFAVAI; listed as Homo sapiens) [compound 78]	Peptide exchange	++++ (>75% = ++++)
122 (ILEPSLYTV; listed as Homo sapiens) [compound 122]	Peptide exchange	++++ (>75% = ++++)

Sample 135 (FLLPLIIVL; listed as Homo sapiens) [compound 135] ; Peptide exchange observed: +++ (>50 = +++)

Sample 128 (KLWGQSIQL; listed as Homo sapiens) [compound 128] ; Peptide exchange observed: ++++ (>75% = ++++)

---

# assay-system: HLA-A*02:01 (Homo sapiens, UniProt P04439, D140Y/D185E/D98H/E176V/E277Q/G131W/G231S/I119V/I121R/I166T/I218V/L300P/L318F/N151K/N90K/P208A/P217A/Q86G/Q94H/R138H/R169H/T345S)
# test-method-notes: MHC binding assay (UV-ligand exchange, β2m ELISA, peptide exchange yield)
# run-conditions: binding to HLA-A*02:01 ranged by peptide exchange yield (UV-ligand exchange, β2m ELISA)
endpoint-label: Peptide exchange

Sample records with Peptide exchange:
substance	result
137 (ALFPHLLQPVL; listed as Homo sapiens) [compound 137]	++++ (>75% = ++++)
3 (YLDEIPPKFSM; listed as Homo sapiens) [compound 3]	++++ (>75% = ++++)
119 (SLDEKQNLV; listed as Homo sapiens) [compound 119]	+++ (>50 = +++)
39 (AMASHLTST; listed as Homo sapiens) [compound 39]	+++ (>50 = +++)
87 (RLLELLQEA; listed as Homo sapiens) [compound 87]	++++ (>75% = ++++)
144 (YLAGEAPTL; listed as Homo sapiens) [compound 144]	+++ (>50 = +++)
68 (TMIVSLAAV; listed as Homo sapiens) [compound 68]	+++ (>50 = +++)

// switching to the query substance
Sample 33 (VLFGEITRL; listed as Homo sapiens) [compound 33] ; Peptide exchange observed: +++ (>50 = +++)
